FYI, the data here is from patent US20070178531A1.

Can you tell me A450 for the items I'm about to list?
Biological target: T1, Human Id3: Histidine (human, UniProt Q02535 1-119 at identity 1.00))
T1 construct: Fusion protein made in E. coli from vector pGW07; also called h-Id3: His; Human Id3 (coated wells); not shown: His tag
T1 chain: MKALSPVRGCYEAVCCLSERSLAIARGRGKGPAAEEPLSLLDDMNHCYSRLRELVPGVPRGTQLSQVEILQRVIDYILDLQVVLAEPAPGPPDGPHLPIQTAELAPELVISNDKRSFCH
Test: ELISA, Ab 0.500 µg/ml
Answer with a number only, understood to be in A450.

If you can, please state the reported A450 value of rabbit monoclonal anti-mouse/human Id3, clone #BCH-4/#17-3 (antibody, V domains shown, Rabbit IgG from a rabbit hybridoma; also called m/h Id3 MoAb 17-3; BCH-3/#17-3) VH: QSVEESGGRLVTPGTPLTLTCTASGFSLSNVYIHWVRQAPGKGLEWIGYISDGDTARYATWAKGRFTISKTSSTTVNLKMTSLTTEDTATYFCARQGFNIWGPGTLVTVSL VL: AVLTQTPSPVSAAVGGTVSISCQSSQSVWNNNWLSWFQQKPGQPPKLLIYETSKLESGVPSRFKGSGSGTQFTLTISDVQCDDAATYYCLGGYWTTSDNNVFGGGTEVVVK .
3.69

If you can, please state the reported A450 value of rabbit monoclonal anti-mouse/human Id3, clone #BCH-4/#16-1 (antibody, V domains shown, Rabbit IgG from a rabbit hybridoma; also called m/h Id3 MoAb 16-1) VH: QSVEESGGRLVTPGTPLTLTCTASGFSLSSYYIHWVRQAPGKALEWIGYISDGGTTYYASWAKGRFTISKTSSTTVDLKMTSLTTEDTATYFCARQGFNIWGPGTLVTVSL VL: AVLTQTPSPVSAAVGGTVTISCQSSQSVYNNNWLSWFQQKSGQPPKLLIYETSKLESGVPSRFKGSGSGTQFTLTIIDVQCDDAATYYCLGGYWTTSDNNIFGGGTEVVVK .
3.37

If you can, please state the reported A450 value of rabbit monoclonal anti-mouse/human Id3, clone #BCH-4/#6-1 (antibody, V domains shown, Rabbit IgG from a rabbit hybridoma; also called m/h Id3 MoAb 6-1) VH: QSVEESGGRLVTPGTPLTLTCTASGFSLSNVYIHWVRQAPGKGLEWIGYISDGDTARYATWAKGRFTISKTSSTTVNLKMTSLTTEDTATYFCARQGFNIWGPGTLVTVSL VL: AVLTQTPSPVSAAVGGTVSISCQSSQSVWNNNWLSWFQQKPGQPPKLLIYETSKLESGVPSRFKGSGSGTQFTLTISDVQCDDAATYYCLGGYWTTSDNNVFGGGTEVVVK .
3.56

If you can, please state the reported A450 value of rabbit monoclonal anti-mouse/human Id3, clone #BCH-4/#42-1 (antibody, V domains shown, Rabbit IgG from a rabbit hybridoma; also called m/h Id3 MoAb 42-1) VH: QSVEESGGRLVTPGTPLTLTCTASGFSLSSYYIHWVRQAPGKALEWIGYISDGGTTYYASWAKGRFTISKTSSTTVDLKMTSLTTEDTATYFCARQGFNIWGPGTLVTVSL VL: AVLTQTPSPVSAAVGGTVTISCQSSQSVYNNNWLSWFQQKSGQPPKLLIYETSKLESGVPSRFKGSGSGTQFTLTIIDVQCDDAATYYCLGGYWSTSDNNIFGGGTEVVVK .
3.75
